SYSTEM_UNDER_TEST: SARS-CoV-2 3CL-protease (Severe acute respiratory syndrome coronavirus 2)
METHOD_DESCRIPTION: SARS-CoV-2 3C-Like (3CL) Protease Fluorescence Assay (FRET)
Format: biochemical
REPORTED_CONDITIONS: SARS-CoV-2 3CL-protease 10 nM, test compounds 0-10 μM, duplicate, read-out: IC50
TEST_READOUT: IC50

{"MOLECULE": "C[C@H](NC(=O)C12CC(C)(C1)C2)C(=O)N(C)[C@@H](CC(C)(C)C)C(=O)N1C[C@]2(C[C@H]1C#N)C(=O)Nc1ccccc12 [Example 309]", "TEST_READOUT": "IC50", "RESULT": "< 0.1 µM"}
{"MOLECULE": "CC(C)C[C@@H](C(=O)N1C[C@]2(C[C@H]1C#N)C(=O)Nc1ccccc12)N(C)C(=O)[C@H](C)NC(=O)c1ccc(F)cn1 [Example 164]", "TEST_READOUT": "IC50", "RESULT": "< 0.1 µM"}
{"MOLECULE": "CC(C)(C)C[C@H](NC(=O)[C@@H](NC(=O)C1(c2ccccc2)CC1)c1ccccc1)C(=O)N1C[C@]2(C[C@H]1C#N)C(=O)Nc1ccccc12 [Example 248]", "TEST_READOUT": "IC50", "RESULT": "< 0.1 µM"}
{"MOLECULE": "CCN1C[C@H]2C[C@H]2[C@H]1C(=O)N(C)[C@@H](CC(C)C)C(=O)N1C[C@]2(C[C@H]1C#N)C(=O)Nc1ccccc12 [Example 254]", "TEST_READOUT": "IC50", "RESULT": "0.1 to 1 µM"}
{"MOLECULE": "CC(C)(C)C[C@H](NC(=O)[C@H](CC1CC1)NC(=O)c1c[nH]cn1)C(=O)N1C[C@]2(C[C@H]1C#N)C(=O)Nc1ccccc12 [Example 325]", "TEST_READOUT": "IC50", "RESULT": "0.1 to 1 µM"}
{"MOLECULE": "C[C@H](NC(=O)c1cccc2cc(F)ccc12)C(=O)N(C)[C@@H](CC(C)(C)C)C(=O)N1C[C@]2(C[C@H]1C#N)C(=O)Nc1ccccc12 [Example 215]", "TEST_READOUT": "IC50", "RESULT": "< 0.1 µM"}
{"MOLECULE": "C[C@H](NC(=O)c1ccc(Cl)cc1)C(=O)N(C)[C@@H](CC(C)(C)C)C(=O)N1C[C@]2(C[C@H]1C#N)C(=O)Nc1ccccc12 [Example 211]", "TEST_READOUT": "IC50", "RESULT": "< 0.1 µM"}
{"MOLECULE": "C[C@H](NC(=O)OCc1ccccc1)C(=O)N[C@@H](CC(C)(C)C)C(=O)N1C[C@]2(C[C@H]1C#N)C(=O)Nc1ccccc12 [Example 227]", "TEST_READOUT": "IC50", "RESULT": "< 0.1 µM"}
{"MOLECULE": "Cc1cccc(C)c1C(=O)N[C@@H](C)C(=O)N(C)[C@@H](CC(C)C)C(=O)N1C[C@]2(C[C@H]1C#N)C(=O)Nc1ccccc12 [Example 148]", "TEST_READOUT": "IC50", "RESULT": "< 0.1 µM"}
{"MOLECULE": "CCN(C(=O)[C@H](C)NC(=O)C12CC3CC(CC(C3)C1)C2)[C@@H](CC(C)C)C(=O)N1C[C@]2(C[C@H]1C#N)C(=O)Nc1ccccc12 [Example 368]", "TEST_READOUT": "IC50", "RESULT": "< 0.1 µM"}
{"MOLECULE": "CC(C)C[C@@H](C(=O)N1C[C@]2(C[C@H]1C#N)C(=O)Nc1ccccc12)N(C)C(=O)[C@H](C)NC(=O)c1ccccc1-c1ccc(C(F)(F)F)cc1 [Example 150]", "TEST_READOUT": "IC50", "RESULT": "< 0.1 µM"}
{"MOLECULE": "CC(C)C[C@@H](C(=O)N1C[C@]2(C[C@H]1C#N)C(=O)Nc1ccccc12)N(C)C(=O)[C@H](C)NC(=O)c1c(F)ccc2[nH]ccc12 [Example 185]", "TEST_READOUT": "IC50", "RESULT": "< 0.1 µM"}

###

SYSTEM_UNDER_TEST: SARS-CoV-2 3CL-protease (Severe acute respiratory syndrome coronavirus 2)
METHOD_DESCRIPTION: SARS-CoV-2 3C-Like (3CL) Protease Fluorescence Assay (FRET)
Format: biochemical
REPORTED_CONDITIONS: SARS-CoV-2 3CL-protease 10 nM, test compounds 0-10 μM, duplicate, read-out: IC50
pIC50: −log10 of the molar value.
Some compounds, each annotated with its measured pIC50.
TEST_READOUT: pIC50

{"SMILES_STRUCTURE": "C[C@H](NC(=O)C(F)(F)F)C(=O)N(C)[C@@H](Cc1ccccc1)C(=O)N1C[C@]2(C[C@H]1C#N)C(=O)Nc1ccccc12", "RESULT": "> 7.00"}
{"SMILES_STRUCTURE": "CC(C)[C@H](Nc1ccc(F)cc1)C(=O)N[C@@H](CC(C)(C)C)C(=O)N1C[C@]2(C[C@H]1C#N)C(=O)Nc1ccccc12", "RESULT": "6.00 to 7.00"}
{"SMILES_STRUCTURE": "CC(C)C[C@@H](C(=O)N1C[C@]2(C[C@H]1C#N)C(=O)Nc1ccccc12)N(C)C(=O)[C@H](C)NC(=O)c1ccc2c(c1)OCC2", "RESULT": "> 7.00"}
{"SMILES_STRUCTURE": "CC(C)(C)C[C@H](NC(=O)[C@@H](NC(=O)C1CCC1)c1ccccc1)C(=O)N1C[C@]2(C[C@H]1C#N)C(=O)Nc1ccccc12", "RESULT": "> 7.00"}
{"SMILES_STRUCTURE": "CC(C)(C)C[C@H](NC(=O)[C@H](CC1CC1)NC(=O)C1CCC1)C(=O)N1C[C@]2(C[C@H]1C#N)C(=O)Nc1ccccc12", "RESULT": "> 7.00"}
{"SMILES_STRUCTURE": "C[C@H](NC(=O)C(F)(F)C(F)(F)F)C(=O)N(C)[C@@H](CC(C)(C)C)C(=O)N1C[C@]2(C[C@H]1C#N)C(=O)N(C)c1ccccc12", "RESULT": "> 7.00"}
{"SMILES_STRUCTURE": "CC(C)(C)C[C@H](NC(=O)[C@@H](Nc1ccc2ccccc2c1)C1CC1)C(=O)N1C[C@]2(C[C@H]1C#N)C(=O)Nc1ccccc12", "RESULT": "> 7.00"}
{"SMILES_STRUCTURE": "C[C@@H]1NC(=O)CCCCCCCc2ccc3c(c2)[C@@]2(C[C@@H](C#N)N(C2)C(=O)[C@H](CC(C)(C)C)NC1=O)C(=O)N3", "RESULT": "< 6.00"}
{"SMILES_STRUCTURE": "CC(C)C[C@@H](C(=O)N1C[C@]2(C[C@H]1C#N)C(=O)Nc1ccc(Br)cc12)N(C)C(=O)[C@H](C)NC(=O)C(F)(F)C(F)(F)F", "RESULT": "> 7.00"}
{"SMILES_STRUCTURE": "CC(C)C[C@@H](C(=O)N1C[C@]2(C[C@H]1C#N)C(=O)Nc1ccccc12)N(C)C(=O)[C@H](C)NC(=O)C1(C(F)(F)F)CC1", "RESULT": "> 7.00"}
{"SMILES_STRUCTURE": "CC(C)C[C@@H](C(=O)N1C[C@]2(C[C@H]1C#N)C(=O)Nc1ccccc12)N(C)C(=O)[C@@H]1[C@@H]2C[C@@H]2CN1C", "RESULT": "6.00 to 7.00"}
{"SMILES_STRUCTURE": "C[C@H](Nc1ccc(F)cc1)C(=O)N[C@@H](CC(C)(C)C)C(=O)N1C[C@]2(C[C@H]1C#N)C(=O)Nc1ccccc12", "RESULT": "6.00 to 7.00"}
{"SMILES_STRUCTURE": "CC(C)C[C@@H](C(=O)N1C[C@]2(C[C@H]1C#N)C(=O)Nc1ccccc12)N(C)C(=O)[C@H](C)NC(=O)C1(F)CCCC1", "RESULT": "> 7.00"}
{"SMILES_STRUCTURE": "CCN1C[C@H]2CCCC[C@H]2C[C@H]1C(=O)N(C)[C@@H](CC(C)(C)C)C(=O)N1C[C@]2(C[C@H]1C#N)C(=O)Nc1ccccc12", "RESULT": "> 7.00"}
{"SMILES_STRUCTURE": "CC(C)C[C@@H](C(=O)N1C[C@]2(C[C@H]1C#N)C(=O)Nc1ccccc12)N(C)C(=O)[C@@H]1CC2(CC2)CN1C(C)C", "RESULT": "> 7.00"}
{"SMILES_STRUCTURE": "CC(C)C[C@@H](C(=O)N1C[C@]2(C[C@H]1C#N)C(=O)Nc1ccccc12)N(C)C(=O)[C@@H]1CC[C@H](c2ccccc2)N1", "RESULT": "> 7.00"}
{"SMILES_STRUCTURE": "C[C@H](NC(=O)c1cc2ccccc2n1-c1ccccc1)C(=O)N(C)[C@@H](CC(C)(C)C)C(=O)N1C[C@]2(C[C@H]1C#N)C(=O)Nc1ccccc12", "RESULT": "> 7.00"}
{"SMILES_STRUCTURE": "C[C@H](NC(=O)c1cnn(-c2ccc(C(F)(F)F)cc2)c1)C(=O)N(C)[C@@H](CC(C)(C)C)C(=O)N1C[C@]2(C[C@H]1C#N)C(=O)Nc1ccccc12", "RESULT": "> 7.00"}
{"SMILES_STRUCTURE": "CC(C)(C)C[C@H](NC(=O)[C@H](CC1CC1)NS(=O)(=O)c1ccc(F)cc1)C(=O)N1C[C@]2(C[C@H]1C#N)C(=O)Nc1ccccc12", "RESULT": "> 7.00"}
{"SMILES_STRUCTURE": "C[C@H](NC(=O)C(F)(F)CCc1ccccc1)C(=O)N(C)[C@@H](CC(C)(C)C)C(=O)N1C[C@]2(C[C@H]1C#N)C(=O)Nc1ccccc12", "RESULT": "> 7.00"}
{"SMILES_STRUCTURE": "C[C@H](NC(=O)c1ccc(F)cc1)C(=O)N[C@@H](CC(C)(C)C)C(=O)N1C[C@]2(C[C@H]1C#N)C(=O)Nc1ccccc12", "RESULT": "> 7.00"}
{"SMILES_STRUCTURE": "C[C@H](NC(=O)c1cc(F)c2nn(C3CC3)cc2c1)C(=O)N(C)[C@@H](CC(C)(C)C)C(=O)N1C[C@]2(C[C@H]1C#N)C(=O)Nc1ccccc12", "RESULT": "> 7.00"}
{"SMILES_STRUCTURE": "C[C@@H](C(=O)N(C)[C@@H](CC(C)(C)C)C(=O)N1C[C@]2(C[C@H]1C#N)C(=O)Nc1ccccc12)n1cc(C2CC2)nn1", "RESULT": "> 7.00"}
